# Tested Target: CaSho1
# Assay Text: SPOT peptide array binding signal intensity (averaged, normalized) (arbitrary units (background-subtracted, floor 0; scale differs between SH3 domains)); higher = stronger binding of the SH3 domain to the peptide
Property Measured: SPOT peptide array binding signal intensity

# count of solved cases: 4
[[record]]
binder = "GTIARPLFLVVLFFI"
result = 730

[[record]]
binder = "PPIPIVPSSPAPPLP"
result = "≤ 0"

[[record]]
binder = "EAEEAAPQLPSRSSA"
result = "≤ 0"

[[record]]
binder = "AVPPPPPPPPLPESL"
result = 4.5


QUERY: For the binder FLIKFTPKFPQSIDH , report SPOT peptide array binding signal intensity.
RESULT: 2110

QUERY: For the binder YLTRPLPSTPNEDSR , report SPOT peptide array binding signal intensity.
RESULT: 1020

QUERY: For the binder VYTRTAFQIPGDDKI , report SPOT peptide array binding signal intensity.
RESULT: ≤ 0
